Hey, just so you know, these numbers are from patent US20250034266A1.

assay system: T1, cynomolgus CCR8 (cynomolgus, UniProt G7NYJ2 1-355)
T1 construct: whole, on cells
T1 sequence (G7NYJ2 entry or part of it): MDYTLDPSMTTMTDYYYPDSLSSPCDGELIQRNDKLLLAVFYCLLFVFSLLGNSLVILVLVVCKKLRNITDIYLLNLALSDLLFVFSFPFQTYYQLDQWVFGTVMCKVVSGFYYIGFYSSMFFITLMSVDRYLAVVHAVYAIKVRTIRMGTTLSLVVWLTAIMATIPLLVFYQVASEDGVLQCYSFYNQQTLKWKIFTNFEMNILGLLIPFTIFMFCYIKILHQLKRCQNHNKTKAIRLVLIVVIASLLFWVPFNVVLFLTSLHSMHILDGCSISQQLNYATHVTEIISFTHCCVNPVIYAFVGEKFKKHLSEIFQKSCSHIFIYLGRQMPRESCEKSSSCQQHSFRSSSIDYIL
assay notes: FACS on HEK293-cynomolgus CCR8 cells
Method: Binding affinities of NG site removed antibodies were determined on human CCR8 and cynomolgus CCR8 overexpression cells. Briefly, CFSE labeled HEK293-human CCR8 cells or CFSE labeled HEK293-cynomolgus CCR8 cells were mixed with HEK293 cells. The mixed ratio was 1:1. […] Data was plotted as the logarithm of antibody concentration versus mean fluorescence signals. EC₅₀ values were calculated in GraphPad Prism 8 (GraphPad Software) using a log (agonist) vs. response-Variable slope (4 parameters) curve fit.
Each entry below carries its recorded Max MFI.
result type: Max MFI

# binder, measured value
measured = [
    ("149F2C10_G29V (antibody, V domains shown, NG site removed variant of 149F2C10) VH: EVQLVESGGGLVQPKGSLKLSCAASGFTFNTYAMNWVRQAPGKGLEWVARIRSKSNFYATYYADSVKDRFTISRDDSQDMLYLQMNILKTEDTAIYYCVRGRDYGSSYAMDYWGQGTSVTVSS VL: DIVMTQAAPSVPVTPGESVSISCRSSKSLLHSNVNTYLYWFLQRPGQSPQLLIYRMSNLASGVPDRFSGSGSGTAFTLRISRVEAEDVGVYYCMQHLEYPLTFGAGTKLELK", "4680 MFI"),
    ("149F2C10_N28I (antibody, V domains shown, NG site removed variant of 149F2C10) VH: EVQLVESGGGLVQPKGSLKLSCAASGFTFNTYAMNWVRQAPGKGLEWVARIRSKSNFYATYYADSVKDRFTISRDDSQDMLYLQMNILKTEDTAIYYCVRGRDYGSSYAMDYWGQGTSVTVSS VL: DIVMTQAAPSVPVTPGESVSISCRSSKSLLHSIGNTYLYWFLQRPGQSPQLLIYRMSNLASGVPDRFSGSGSGTAFTLRISRVEAEDVGVYYCMQHLEYPLTFGAGTKLELK", "1890 MFI"),
    ("149F2C10 (antibody, V domains shown, purified murine hybridoma antibody) VH: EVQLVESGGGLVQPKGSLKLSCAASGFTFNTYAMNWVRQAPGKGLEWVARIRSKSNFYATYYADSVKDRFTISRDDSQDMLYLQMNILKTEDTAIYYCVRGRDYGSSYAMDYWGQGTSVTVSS VL: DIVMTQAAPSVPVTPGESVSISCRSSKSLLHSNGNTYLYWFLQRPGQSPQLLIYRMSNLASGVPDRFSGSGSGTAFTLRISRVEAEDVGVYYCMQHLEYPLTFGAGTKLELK", "3440 MFI"),
    ("149F2C10_N28Q (antibody, V domains shown, NG site removed variant of 149F2C10; detected with anti-mouse IgG) VH: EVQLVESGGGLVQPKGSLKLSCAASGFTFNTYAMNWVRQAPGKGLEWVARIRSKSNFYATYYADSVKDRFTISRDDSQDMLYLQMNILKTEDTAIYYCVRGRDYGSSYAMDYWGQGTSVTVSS VL: DIVMTQAAPSVPVTPGESVSISCRSSKSLLHSQGNTYLYWFLQRPGQSPQLLIYRMSNLASGVPDRFSGSGSGTAFTLRISRVEAEDVGVYYCMQHLEYPLTFGAGTKLELK", "2450 MFI"),
]
